Values from the supplement of paper PMC10567573

B1: CSNK1G1 (parent)
chain: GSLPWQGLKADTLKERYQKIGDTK

Variants of: B1
Assay: protein stability index of a GFP-peptide fusion (GPS, HEK-293T) (PSI 1-6); higher = more stable;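 also: lentivirally expressed fusions sorted by FACS into six bins by GFP to DsRed ratio, PSI derived from sequencing read proportions per bin multiplied by bin number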
Conditions: c terminus: a fixed tail appended
readout_type: protein stability index
The response must contain the number and no unit.

// protein stability index lookup, variant = "P4N" , result: 3.95

// protein stability index lookup, variant = "S2D" , result: 4.53

// protein stability index lookup, variant = "L3H" , result: 4.58

// protein stability index lookup, variant = "R16T" , result: 4.07

// protein stability index lookup, variant = "L3S" , result: 4.2

// protein stability index lookup, variant = "G1T" , result: 4.04

// protein stability index lookup, variant = "G21I" , result: 3.41

// protein stability index lookup, variant = "I20E" , result: 5.24
